Assay: Plasma protein binding in Sprague-Dawley rat
Assay type: ADME, cell-free
Settings: read-out: PPB
EXPERIMENTAL_ENDPOINT: fraction unbound

// fraction unbound lookup, key: `CNC(=O)C[C@@H]1NC(=O)c2csc(n2)-c2ccc(-c3nc(NC(=O)[C@H]4CC[C@H](C(=O)O)CC4)cs3)nc2-c2csc(n2)-c2csc(n2)[C@H]([C@@H](O)c2ccccc2)NC(=O)CNC(=O)c2nc(sc2COC)[C@H](C(C)C)NC(=O)c2nc1sc2C`
< 0.01

* * *

Test system: Staphylococcus aureus
Experiment: Antibacterial activity against methicillin-resistant Staphylococcus aureus isolate A4.018 by CLSI M07-A8 method
Format: functional
In this section we review reported MIC values for a set of compounds.
The reply should contain only the number, in µg/mL.

// MIC lookup, key: `CNC(=O)C[C@@H]1NC(=O)c2csc(n2)-c2ccc(-c3nc(NC(=O)c4ccc(C(=O)O)nc4)cs3)nc2-c2csc(n2)-c2csc(n2)[C@H]([C@@H](O)c2ccccc2)NC(=O)CNC(=O)c2nc(sc2COC)[C@H](C(C)C)NC(=O)c2nc1sc2C`
4

* * *

Experiment: Volume of distribution at steady state in Sprague-Dawley rat at 1 mg/kg, iv bolus
Type: ADME, organism-based
Parameters: dose 1 mg/kg, route intravenous
Conditions: in vivo, read-out: Vdss
EXPERIMENTAL_ENDPOINT: Vd

// Vd lookup, key: `CNC(=O)C[C@@H]1NC(=O)c2csc(n2)-c2ccc(-c3nc(NC(=O)[C@H]4CC[C@H](C(=O)O)CC4)cs3)nc2-c2csc(n2)-c2csc(n2)[C@H]([C@@H](O)c2ccccc2)NC(=O)CNC(=O)c2nc(sc2COC)[C@H](C(C)C)NC(=O)c2nc1sc2C`
< 0.1 L/kg

* * *

Test system: Enterococcus faecalis
Test: Antibacterial activity against Enterococcus faecalis ATCC 29212 by CLSI M07-A8 method
Assay type: functional
EXPERIMENTAL_ENDPOINT: MIC (µg/mL)
The reply should contain only the number, in µg/mL.

[[record]]
smiles_repr = "CNC(=O)C[C@@H]1NC(=O)c2csc(n2)-c2ccc(-c3nc(NC(=O)OCCCCCN)cs3)nc2-c2csc(n2)-c2csc(n2)[C@H]([C@@H](O)c2ccccc2)NC(=O)CNC(=O)c2nc(sc2COC)[C@H](C(C)C)NC(=O)c2nc1sc2C"
unit_spec = "µg/mL"
assay_value = 0.5

[[record]]
smiles_repr = "CNC(=O)C[C@@H]1NC(=O)c2csc(n2)-c2ccc(-c3nc(NC(=O)c4ccc(C(=O)O)cn4)cs3)nc2-c2csc(n2)-c2csc(n2)[C@H]([C@@H](O)c2ccccc2)NC(=O)CNC(=O)c2nc(sc2COC)[C@H](C(C)C)NC(=O)c2nc1sc2C"
unit_spec = "µg/mL"
assay_value = 0.125

[[record]]
smiles_repr = "CNC(=O)C[C@@H]1NC(=O)c2csc(n2)-c2ccc(-c3nc(NC(=O)[C@H]4CC[C@@H]4C(=O)O)cs3)nc2-c2csc(n2)-c2csc(n2)[C@H]([C@@H](O)c2ccccc2)NC(=O)CNC(=O)c2nc(sc2COC)[C@H](C(C)C)NC(=O)c2nc1sc2C"
unit_spec = "µg/mL"
assay_value = 0.25

[[record]]
smiles_repr = "CNC(=O)C[C@@H]1NC(=O)c2csc(n2)-c2ccc(-c3nc(NC(=O)OCCCN)cs3)nc2-c2csc(n2)-c2csc(n2)[C@H]([C@@H](O)c2ccccc2)NC(=O)CNC(=O)c2nc(sc2COC)[C@H](C(C)C)NC(=O)c2nc1sc2C"
unit_spec = "µg/mL"
assay_value = 1

[[record]]
smiles_repr = "CNC(=O)C[C@@H]1NC(=O)c2csc(n2)-c2ccc(-c3nc(NC(=O)[C@H]4CC[C@@H](C(=O)O)CC4)cs3)nc2-c2csc(n2)-c2csc(n2)[C@H]([C@@H](O)c2ccccc2)NC(=O)CNC(=O)c2nc(sc2COC)[C@H](C(C)C)NC(=O)c2nc1sc2C"
unit_spec = "µg/mL"
assay_value = 0.125

[[record]]
smiles_repr = "CNC(=O)C[C@@H]1NC(=O)c2csc(n2)-c2ccc(-c3nc(NC(=O)OCCN4CCOCC4)cs3)nc2-c2csc(n2)-c2csc(n2)[C@H]([C@@H](O)c2ccccc2)NC(=O)CNC(=O)c2nc(sc2COC)[C@H](C(C)C)NC(=O)c2nc1sc2C"
unit_spec = "µg/mL"
assay_value = 0.5


// MIC lookup, key: `CNC(=O)C[C@@H]1NC(=O)c2csc(n2)-c2ccc(-c3nc(NS(C)(=O)=O)cs3)nc2-c2csc(n2)-c2csc(n2)[C@H]([C@@H](O)c2ccccc2)NC(=O)CNC(=O)c2nc(sc2COC)[C@H](C(C)C)NC(=O)c2nc1sc2C`
2

Same lookup for `CNC(=O)C[C@@H]1NC(=O)c2csc(n2)-c2ccc(-c3nc(NC(=O)c4ccc(C(=O)O)nc4)cs3)nc2-c2csc(n2)-c2csc(n2)[C@H]([C@@H](O)c2ccccc2)NC(=O)CNC(=O)c2nc(sc2COC)[C@H](C(C)C)NC(=O)c2nc1sc2C` , please.
4
